These data points were gathered from the nanobody polyreactivity screen of Harvey et al. (2022).

# assay_remarks: yeast display, Sf9 membrane polyspecificity reagent, FACS + sequencing; frameworks hold sequencing errors
metric_name: polyreactivity (PSR sort gate)

Worked cases, polyreactivity (PSR sort gate) given:
[[record]]
ordered_residues = "QVQLEESGGGLVQAGGSLRLSCAASGRTFLEYVMGWYRQAPGKERELVAVISWSTGSTYADSVKGRFTISRDNAKNTVYLQMNSLKPEDTAVYYCARRVQSLGNVVIYNYWGQGTQVTVSS"
readout_value = "low polyreactivity"

[[record]]
ordered_residues = "QVQLVESGGGLVQAGGSLRLSCAASGSIFTFNAMGWYRQAPGKERELVAAINWSGTRTYYADSVKGRFTISRDNAKNTVYLQMNSLKPEDTAVYYCNTRPSKRYGYDYWGQGTQVTVSS"
readout_value = "high polyreactivity"

[[record]]
ordered_residues = "QVQLVESGGGLVQAGGSLRLSCAASGSTFYPTYAMGWYRQAPGKERELVATITGSGGSTYYADSVKGRFTISRDNAKNTVYLQMNSLKPEDTAVYYCAADRWYSRYTRYGYWGQGTQVTVSS"
readout_value = "low polyreactivity"

[[record]]
ordered_residues = "QVQLVESGGGLVQAGGSLRLSCAASGSTFSENAMGWYRQAPGKERELVADITNGGSTNYADSVKGRFTISRDNAKNTVYLQMNSLKPEDTAVYYCATDSYPGLNPDFDYWGQGTQVTVSS"
readout_value = "low polyreactivity"

[[record]]
ordered_residues = "QVQLVESGGGLVQAGGSLRLSCAASGNTFRSYVMGWYRPAPGKARELVADISSGDGTNYADSVKGRFTISRDTAKNTVYLQMNSLKPEDTAVYYCAKDVYNFRSTHSYFTGYVSWGQGTQVTVSW"
readout_value = "low polyreactivity"

[[record]]
ordered_residues = "QVQLVESGGGIVQAGGSLRLSCAASGRIFDEYAMGWYRLAPGKERELVAAITYSAGSTYYADSVKGRFTISRDNAKNTVYLQMNSLKPEDTAVYYCAADRYYWWWYTYNYWGQGTQVTVSS"
readout_value = "low polyreactivity"

[[record]]
ordered_residues = "QVQLVESGGGLVQAGGSLRLSCAASGRTFRYNTMGWYRPAPGKERELVAAISSGGGRTYYADSVKGRFTISRDNAKNTVYLQMNSLIPEDTAVYYCAADRYFRSRRSYEYWGQGTQVTVSS"
readout_value = "low polyreactivity"

[[record]]
ordered_residues = "QVQLVESGGGLVQAGGSLRLSCAASGRNFGRNGMGWYRQAPGKERELVAAISIGDSTTYADSVKGRFTISRDNAKNTVYLQMNSLKPEDTAVFYCAAELERYPVWEYRGKYDYWGQGTQVTVSS"
readout_value = "low polyreactivity"


Quick one: give measured polyreactivity (PSR sort gate) for QVQLVESGGGLVQAGGSLRLSCAASGFIIYFNAMGWYRQPRGKERELVASITSGASTNYADSVKGRFTISRDNAKNTVYLQMNSLKPEDTAVYYCAAAYFWLDPYVEYDYWGQGTQVTVSS
low polyreactivity

Consider the sequence QVQLVESGGGLVQAGGSLRLSCAASGSIFGLYTMGWYRQAPGKERELVAAISSVGSTYYADSVKGRFTISRDNAKNTVYLQMNSLKPEDTAVYYCNVYSRTHYQTYTDDYWGQGTQVTVSS . State its measured polyreactivity (PSR sort gate).
high polyreactivity

Tell us which polyreactivity (PSR sort gate) value is on record for QVQLVESGGGLVQAGGSLRLSCAASGSIFPTYAMGWYRQAPGKEWELVAAIRGDGSTNYADSVKGRFTISRDNAKNTVYLQMNSLKPEDTAVSYCAAVSSEYVFRYGGYWGQGTQVTVSS
low polyreactivity

Find the measured polyreactivity (PSR sort gate) of QVQLVESGGGLVQAGGSLRLSCAASGRTIYYYAMGWYRQAPGKERELVAAITSGGSTYYADSVKGRFTISRDNEKNTVYLQMNSLKPEDTAVYYCAARPLEGWHYGSWGQGTQVTVSS and report it.
low polyreactivity

State its polyreactivity (PSR sort gate) for this sequence: QVQLVESGGGLVQAGGSLRLSCAASGGIFALNDMGWYRQAPGKERELVAAINGAGTYYADSVKGRFTISRDNAKNTVYLQMNSLKPEETAVYYCARRWLHWEYARTWTRVEYDYWGQGTQVTVSS
low polyreactivity

Provide measured polyreactivity (PSR sort gate) value, entry: QVQLVESGGGLVQAGGSLRLSCAASGFIFSYLYAMGWYRQAPGKERELVAAITYNGGSTYYADSVKGRFTISRDIAKNTVYLQMNSLKPEDTAVYYCAARKRYRANSYWEMAYWGQGTQVTVSS
high polyreactivity

Recall and state the measured polyreactivity (PSR sort gate) for QVLLVEAGGGLVQAGGSLRLSCAASGRIFRRYAMGWYRQAPGKERELVAAISSGGGSTYYADSVKGRFTISRDNAKNTVYLQMNSLKPEDTAVYYCNTDFYYDDVSQAHDYWGQGTQVTVSS .
high polyreactivity

Please report the measured polyreactivity (PSR sort gate) for QVQLVESGGGLVQAGGSLRLSCAASGRIFSGYAMGWYRQAPGKEREFVAAITSSGRTKYADSVKGRFTISRDNAKNTVYLQMNSLKPEDTAVYYCAARPSQWNYDYRRVYYWGQGTQVTVSS
high polyreactivity

Annotate the sequence QVQLVESGGGLVKSGGSLRLSCAASGGTFKPNVMGWYIQAPGKERELVAAITSGGSTYYADSVKGRFTISRDNAKNTVYLQMNSLKPEDTAVYYCAASSLRRYGYNYWGQVTQVTVSS with its measured polyreactivity (PSR sort gate).
high polyreactivity

For the sequence QVQLVESGGGLVQAGGSLRLSCAASGSTFGPYAMGWYRQAPGKERELVADITVSDGSTYYADSVKGRFTISRDNAKNTVYLQMNSLKPEDTAVYYCAAEIYYSFGYWGQGTQVTVSS , give its reported polyreactivity (PSR sort gate).
low polyreactivity

# return recorded polyreactivity (PSR sort gate) for input QVQLVESGGGLVQAGGSLRLSCAASGSIFVQYAMGWYRQAPGKERELVAAITRRAGSTYYADSVKGRFTISRDNAKNTVYLQMNSLKPEDTAVYYCAAGYRYRYTRDIWYEYWGQGTQVTVSS
high polyreactivity

Indicate its recorded polyreactivity (PSR sort gate); the sequence in question is QVQLVESGGGLVQAGGSLRLSCAASGSIFVVYTMGWYRQAPGKERELVAAITQNGGSSTYYADSVKGRFTISRDNAKNTVYLQMNSLKPEDTAVYYCNKDILSPVVRIFKYGYDMDYWGQGTQVTVSS
low polyreactivity

Look up polyreactivity (PSR sort gate) of QVQLVESGGGLVQAGGSLRLSCAASGLNFSHYTMGWYRQAPGKERELVAAITSSGGSTYYADSVKGRFTISRDNGKNTVYLQMNSLKPVDTAVYYCNKALTSKDYPVRTVERDYWGQGTQVTVSS and report it.
low polyreactivity
